Molecular target: UniProt P07711
Sequence (P07711 whole entry): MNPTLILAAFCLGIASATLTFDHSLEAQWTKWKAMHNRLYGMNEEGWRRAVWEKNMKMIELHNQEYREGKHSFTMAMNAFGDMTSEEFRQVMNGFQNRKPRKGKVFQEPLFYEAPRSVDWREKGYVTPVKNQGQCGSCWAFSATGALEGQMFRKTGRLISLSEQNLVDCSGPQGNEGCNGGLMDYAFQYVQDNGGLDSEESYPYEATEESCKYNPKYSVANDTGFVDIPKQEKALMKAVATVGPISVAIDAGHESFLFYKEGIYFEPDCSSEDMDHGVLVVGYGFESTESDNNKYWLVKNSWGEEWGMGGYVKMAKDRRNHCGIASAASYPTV
Assay: Inhibition of human liver CatL assessed as fluorescence using Cbz-Phe-Arg-AMC as substrate measured at second inhibition step by fluorometric enzyme assays
Give pKi for every item shown.
Answers are plain numbers, as −log10 of the molar value.

| STRUCTURE_SMILES_STRING | TARGET_UNDER_TEST | REPORTED_ENDPOINT | REPORTED |
| --- | --- | --- | --- |
| O=C(N[C@@H](Cc1ccccc1)C(=O)N[C@H](/C=C(\F)S(=O)(=O)Oc1ccccc1)CCc1ccccc1)c1ccncc1 | UniProt P07711 | pKi | 6.59 |
| O=C(N[C@@H](Cc1ccccc1)C(=O)N[C@H](/C=C(\F)S(=O)(=O)Cc1ccccc1)CCc1ccccc1)c1ccncc1 | UniProt P07711 | pKi | 6.65 |

For every listed record, write down its pKi.
1. Cc1ccc(C[C@H](NC(=O)c2ccncc2)C(=O)N[C@H](/C=C(\F)S(=O)(=O)Oc2ccccc2)CCc2ccccc2)cc1
2. Cc1cccc(C[C@H](NC(=O)c2ccncc2)C(=O)N[C@H](/C=C(\F)S(=O)(=O)c2ccccc2)CCc2ccccc2)c1

Key:
[6.50, 7.31]

Where do these numbers come from? They come from ChEMBL document CHEMBL4831511.
